B1: ZNF24 (parent)
chain: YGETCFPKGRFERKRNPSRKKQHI

# Variants of: B1
# Protocol Description: protein stability index of a GFP-peptide fusion (GPS, HEK-293T) (PSI 1-6); higher = more stable;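 further: lentivirally expressed fusions sorted by FACS into six bins by GFP to DsRed ratio, PSI derived from sequencing read proportions per bin multiplied by bin number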
# Recorded Conditions: c terminus: a fixed tail appended
Note to self: values exactly at 3 are true (1). So protein stability index at or above 3 is true (1), below is false (0).

Q) # check: protein stability index of N16Y is greater than or equal to 3
A) false (0)

Q) Confirm if protein stability index reported for the variant R19N is 3 or above.
A) false (0)

Q) Determine whether measured protein stability index meets or exceeds 3 for R10M
A) false (0)

Q) Confirm if protein stability index reported for the variant N16P is 3 or above.
A) false (0)

Q) Quick check, protein stability index >= 3? F6P
A) true (1)

Q) Textbook exercise: given the entry C5E , state whether its protein stability index is greater than or equal to 3.
A) true (1)

Q) Item Q22K with protein stability index of 3 or above?
A) false (0)

Q) Evaluate R13Y : protein stability index at minimum 3?
A) false (0)

Q) State whether the measured protein stability index reaches 3, counting equality as reaching it, for R15A
A) false (0)

Q) # bool: protein stability index of T4L >= 3
A) false (0)

Q) Check if protein stability index >= 3 (inclusive). Item: P7I
A) false (0)

Q) hey, is protein stability index for this one >= 3? K20C
A) false (0)

Q) I'd appreciate it if you could say whether E3F has protein stability index at least equal to 3.
A) false (0)

Q) // inclusive: protein stability index at least 3? input: F6S
A) true (1)

Q) Check if protein stability index >= 3 (inclusive). Item: T4V
A) true (1)

Q) Determine whether this variant has protein stability index no lower than 3: K21V
A) false (0)

Q) Answer whether protein stability index of R13F is greater than or equal to 3.
A) false (0)

Q) Has R10C a recorded protein stability index greater than or equal to 3?
A) false (0)

Q) Threshold query (protein stability index >= 3) on K14P
A) true (1)

Q) Could you tell me if the measured protein stability index of Q22M reaches 3 or more?
A) false (0)

Q) Say whether S18P shows protein stability index of 3 or more.
A) false (0)

Q) # bool: protein stability index of P17L >= 3
A) false (0)

Q) // inclusive: protein stability index at least 3? input: F6N
A) true (1)

Q) Could you tell me if the measured protein stability index of H23L reaches 3 or more?
A) false (0)

Q) Is protein stability index at least 3? Consider H23V
A) false (0)

Q) Given the entry H23D , answer whether its protein stability index meets or surpasses 3.
A) false (0)

Q) In plain terms: is recorded protein stability index at least 3 for Y1F ?
A) false (0)

Q) Given the entry R15T , answer whether its protein stability index meets or surpasses 3.
A) false (0)

Q) For this variant, is measured protein stability index 3 or higher? Q22E
A) true (1)

Q) Item H23I with protein stability index of 3 or above?
A) false (0)

Q) Check the entry P7H : does protein stability index equal or exceed 3?
A) false (0)

Q) Hi, just wondering whether R13N shows protein stability index of 3 or higher.
A) false (0)

Q) Is protein stability index at least 3? Consider H23E
A) false (0)

Q) Is protein stability index for I24R at or above 3?
A) false (0)

Q) // inclusive: protein stability index at least 3? input: F11L
A) false (0)

// provenance: the supplement of paper PMC10567573
